protein stability index listing for selected variants.
B1: KCNA4 (parent)
chain: YQLGEEALLKFREDEGFVREEEDR

variants of: B1; assay: protein stability index of a GFP-peptide fusion (GPS, HEK-293T) (PSI 1-6); higher = more stable; settings: c terminus: a fixed tail appended;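 also: lentivirally expressed fusions sorted by FACS into six bins by GFP to DsRed ratio, PSI derived from sequencing read proportions per bin multiplied by bin number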
No unit in the answer, only the number.

Use the examples below as a reference point.
Q2R ... 5.09
R19F ... 4.87
G4V ... 5.11

Now look at this one.
Given item F17Y , the value recorded as its protein stability index is 4.86

Data origin, for the record: the supplement of paper PMC10567573
